Assayed Target: UniProtKB P10275
Sequence (P10275 whole entry): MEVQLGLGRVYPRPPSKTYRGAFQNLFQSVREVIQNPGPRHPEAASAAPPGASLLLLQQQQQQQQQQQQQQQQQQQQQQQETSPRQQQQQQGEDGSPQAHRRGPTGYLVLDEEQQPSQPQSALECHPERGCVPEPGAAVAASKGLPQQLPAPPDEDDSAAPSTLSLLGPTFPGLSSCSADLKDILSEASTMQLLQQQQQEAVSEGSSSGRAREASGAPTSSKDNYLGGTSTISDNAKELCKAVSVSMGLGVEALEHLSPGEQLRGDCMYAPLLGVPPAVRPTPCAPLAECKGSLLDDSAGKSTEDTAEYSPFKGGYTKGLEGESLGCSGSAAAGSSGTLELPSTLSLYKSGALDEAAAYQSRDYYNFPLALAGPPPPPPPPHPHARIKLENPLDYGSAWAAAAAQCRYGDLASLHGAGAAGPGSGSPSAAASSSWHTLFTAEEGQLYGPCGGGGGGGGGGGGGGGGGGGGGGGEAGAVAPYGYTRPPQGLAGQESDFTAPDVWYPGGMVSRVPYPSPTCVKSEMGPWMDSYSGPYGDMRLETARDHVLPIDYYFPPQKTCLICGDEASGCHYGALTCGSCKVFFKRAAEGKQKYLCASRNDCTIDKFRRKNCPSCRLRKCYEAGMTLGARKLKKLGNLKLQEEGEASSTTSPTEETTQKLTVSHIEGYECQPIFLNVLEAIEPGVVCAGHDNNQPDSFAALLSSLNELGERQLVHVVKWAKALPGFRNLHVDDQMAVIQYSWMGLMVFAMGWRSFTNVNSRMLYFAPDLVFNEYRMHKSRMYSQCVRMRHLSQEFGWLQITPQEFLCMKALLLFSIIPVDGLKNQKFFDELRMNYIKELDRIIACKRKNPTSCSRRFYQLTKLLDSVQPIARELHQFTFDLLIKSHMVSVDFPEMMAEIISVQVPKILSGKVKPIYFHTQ
Protocol Notes: Measurement of AR protein degradation in VCaP cells by Western blotting
Type: cell-based
Set-up: endogenous in cells; host or cells: VCaP
Test Context: VCaP, 20 h, read-out: AR degradation in VCaP cells (%)
Experimental: The amount of AR protein present in LNCaP or VCaP cells was measured after treating them with the synthesized compound. The amount of AR protein was measured using Western blotting. The protocol for the experiments using LNCaP or VCaP cells was as follows. [Culture] […] [Protein Quantification] […] After shaking for 10 seconds, the absorbance was measured at a wavelength of 562 nm. The unknown protein concentration was determined using a BSA standard curve (0, 0.125, 0.25, 0.5, 1, 2 mg/mL). […]
Let's look at some compounds and their measured Dmax at 0.1 µM.

[
  {
    "Compound": "N#Cc1ccc(N2CCC(C(=O)Nc3ccc(OC4CCN(CC5CCN(c6ccc(NC7CCC(=O)NC7=O)cc6F)CC5)CC4)cn3)CC2)cc1Cl (stereo not drawn)",
    "Unit": "%",
    "Dmax at 0.1 µM": 99
  },
  {
    "Compound": "N#Cc1ccc(N2CCC(C(=O)Nc3ccc(OC4CCN(CC5CCN(c6ccc(N[C@@H]7CCC(=O)NC7=O)cc6F)CC5)CC4)cn3)CC2)cc1C(F)(F)F",
    "Unit": "%",
    "Dmax at 0.1 µM": 96
  },
  {
    "Compound": "N#Cc1ccc(N2CCC(C(=O)Nc3ccc(OC4CCN(CC5CCN(c6ccc(NC7CCC(=O)NC7=O)cc6F)CC5)CC4)cn3)CC2)c(F)c1C(F)(F)F (stereo not drawn)",
    "Unit": "%",
    "Dmax at 0.1 µM": 99
  }
]

meta.source: patent EP4772505A1
